organism: Homo sapiens; test: Inhibition of TNFalpha-stimulated NF-kB signaling pathway (unknown origin) expressed in human AD293 cells after 4 hrs by luciferase reporter gene assay; type: cell-based

{"CHEMICAL STRUCTURE": "C[C@@H](OC(=O)c1ccccc1O)[C@]1(O)CC[C@@]2(O)[C@]1(C)[C@H](OC(=O)/C=C/c1ccccc1)C[C@@H]1[C@@]3(C)CC[C@H](O)CC3=CC[C@]12O", "EC10": "> 10 µM"}
{"CHEMICAL STRUCTURE": "COc1ccc(/C=C/C(=O)O[C@H]2CC[C@@]3(C)C(=CC[C@]4(O)[C@@H]3C[C@@H](OC(=O)/C=C(\\C)C(C)C)[C@@]3(C)[C@]4(O)CC[C@@]3(O)C(C)=O)C2)cc1", "EC10": "> 10 µM"}
{"CHEMICAL STRUCTURE": "CC(=O)[C@]1(O)CC[C@@]2(O)[C@]1(C)[C@H](OC(=O)/C=C(\\C)C(C)C)C[C@@H]1[C@@]3(C)CC[C@H](Cl)CC3=CC[C@]12O", "EC10": "> 10 µM"}
{"CHEMICAL STRUCTURE": "CC(=O)[C@]1(O)CC[C@@]2(O)[C@]1(C)[C@H](OC(=O)/C=C(\\C)C(C)C)C[C@@H]1[C@@]3(C)CCC(=O)CC3=CC[C@]12O", "EC10": "> 10 µM"}
{"CHEMICAL STRUCTURE": "C[C@@H](OC(=O)c1cccnc1)[C@]1(O)CC[C@@]2(O)[C@]1(C)[C@H](OC(=O)/C=C/c1ccccc1)C[C@@H]1[C@@]3(C)CC[C@H](OC(=O)/C=C/c4ccc([N+](=O)[O-])cc4)CC3=CC[C@]12O", "EC10": "> 10 µM"}
{"CHEMICAL STRUCTURE": "CC(=O)[C@]1(O)CC[C@@]2(O)[C@]1(C)[C@H](OC(=O)c1ccc(O)cc1)C[C@@H]1[C@@]3(C)CC[C@H](OC(=O)CCl)CC3=CC[C@]12O", "EC10": "> 10 µM"}
{"CHEMICAL STRUCTURE": "C[C@@H](OC(=O)c1cccnc1)[C@]1(O)CC[C@@]2(O)[C@]1(C)[C@H](OC(=O)/C=C/c1ccccc1)C[C@@H]1[C@@]3(C)CC[C@H](OC(=O)c4ccccc4)CC3=CC[C@]12O", "EC10": "> 10 µM"}
{"CHEMICAL STRUCTURE": "C[C@@H](OC(=O)c1cccnc1)[C@]1(O)CC[C@@]2(O)[C@]1(C)[C@H](OC(=O)/C=C/c1ccccc1)C[C@@H]1[C@@]3(C)C=CC(=O)C=C3C=C[C@]12O", "EC10": "> 10 µM"}
